Measured pIC50 accompanies every entry in the list below.
molecular target: ROMK (Kir1.1) channel (Homo sapiens (Human)); assay: Thallium Flux Assay
Sequence (P48048 whole entry): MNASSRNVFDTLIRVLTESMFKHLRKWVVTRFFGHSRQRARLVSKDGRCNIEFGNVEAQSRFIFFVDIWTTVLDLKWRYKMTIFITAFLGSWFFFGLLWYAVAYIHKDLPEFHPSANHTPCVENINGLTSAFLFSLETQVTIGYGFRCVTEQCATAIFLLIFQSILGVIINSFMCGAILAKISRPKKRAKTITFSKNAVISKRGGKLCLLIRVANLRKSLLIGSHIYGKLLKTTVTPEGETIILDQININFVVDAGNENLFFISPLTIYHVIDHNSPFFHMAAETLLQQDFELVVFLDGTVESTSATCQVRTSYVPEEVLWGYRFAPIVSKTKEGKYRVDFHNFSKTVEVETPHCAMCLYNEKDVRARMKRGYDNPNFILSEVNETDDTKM
Schema: pIC50 number; meaning minus log10 of the concentration expressed in molar units.

// below: answered molecules
QUERY_SMILES	pIC50
CC1=C(N2CC[C@]3(CC[C@H](N(C)Cc4ccc(-n5ncnn5)nn4)CC3)C2=O)COC1=O	6.37
CC1=C(N2CC[C@]3(CC[C@@H](N(C)[C@H](CO)c4ccc(-n5cnnn5)nc4)CC3)C2=O)COC1=O	6.32

Then there is this molecule:
Please look at this molecule and report its pIC50: "CC1=C(N2CC[C@]3(CC[C@](C)(N(C)Cc4ccc(-n5cnnn5)nn4)CC3)C2=O)COC1=O"
7.82
